# measured.on: Tyrosine-protein kinase ZAP-70 (Homo sapiens)
# condition.label: at 1 µM
# Description: GSK_PKIS: ZAP70 mean inhibition at 1 uM [Nanosyn]
quantity.name: inhibition (%)
Hi! Could you send only the number? It should be in %, unit omitted.

| smiles | inhibition, % |
| --- | --- |
| COc1ccc(-c2oc3ncnc(N)c3c2-c2ccc(NC(=O)Nc3cc(C(F)(F)F)ccc3F)cc2)cc1 | 4.77 |
| COC(=O)c1sc(-n2cnc3cc(OC)c(OC)cc32)cc1OCc1ccccc1C(F)(F)F | 2.18 |

In one line, give reported inhibition of the entry CC(=O)NCc1cccc(C#Cc2cncnc2Nc2ccc(OCc3cccc(F)c3)c(Cl)c2)c1 . 2.22

Fill in reported inhibition for this entry: CNC(=O)c1cc(-c2ccc(F)cc2)cc(-c2ccc(S(=O)(=O)N3CCCC3)cc2)c1N -0.59

Specify measured inhibition for Cc1cccc2c1NC(=O)/C2=N\Nc1ccc(S(N)(=O)=O)cc1 . 2.59

Look up inhibition of CCc1nn2ncccc2c1-c1ccnc(NC2CC2)n1 and report it. -2.31

Given the compound COc1cccc(-n2ncc3c(N/N=C/c4ccc(F)cc4)ncnc32)c1 , write its reported inhibition. 2.54

Answer with the recorded inhibition of CS(=O)(=O)CCNCc1ccc(-c2ccc3ncnc(Nc4ccc(OCc5ccccc5)c(C(F)(F)F)c4)c3c2)o1 only. 2.41

Tell me measured inhibition for CC(C)COC(=O)c1ccc2c(c1)/C(=C/Nc1ccc(S(N)(=O)=O)cc1)C(=O)N2 please. 1.21

Give the measured inhibition for c1ccc(-c2nc3n(c2-c2ccc4c(c2)OCO4)CCC3)nc1 1.94

* * *

# measured.on: Mitogen-activated protein kinase 13 (Homo sapiens) (UniProt O15264)
# Sequence (O15264 whole entry): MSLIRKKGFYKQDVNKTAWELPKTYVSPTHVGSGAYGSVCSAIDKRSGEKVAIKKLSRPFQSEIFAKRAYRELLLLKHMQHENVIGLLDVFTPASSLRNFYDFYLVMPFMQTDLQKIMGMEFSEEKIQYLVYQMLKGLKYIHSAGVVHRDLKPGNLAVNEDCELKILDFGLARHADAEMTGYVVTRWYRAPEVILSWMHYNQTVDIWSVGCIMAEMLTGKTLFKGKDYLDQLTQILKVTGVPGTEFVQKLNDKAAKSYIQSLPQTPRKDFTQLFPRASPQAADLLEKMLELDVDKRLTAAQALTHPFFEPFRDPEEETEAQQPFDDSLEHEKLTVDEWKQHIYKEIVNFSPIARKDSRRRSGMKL
# condition.label: at 0.1 µM
quantity.name: inhibition (%)
// note: answer is a bare numeric in %

Record excerpt, results attached:
| smiles | recorded.number |
| --- | --- |
| COc1cc2ncn(-c3cc(OCc4ccccc4C(F)(F)F)c(C(=O)N(C)C)s3)c2cc1OC | -0.21 |
| CN(C)CCOc1ccc(-c2nc(-c3ccncc3)c(-c3ccc4c(c3)CC/C4=N\O)[nH]2)cc1 | 0.98 |
| [O-][S+]1CCN(Cc2ccc(-c3ccc4ncnc(Nc5ccc(OCc6cccc(F)c6)c(Cl)c5)c4c3)o2)CC1 | 4.67 |

Enter inhibition (test system Mitogen-activated protein kinase 13 (Homo sapiens) (UniProt O15264)) for CNC(=O)c1cncc(/C=C/c2ccccc2Cl)c1 1.17

Under Mitogen-activated protein kinase 13 (Homo sapiens) (UniProt O15264), report inhibition for O=S(=O)(CCNCc1ccc(-c2ccc3ncnc(Nc4ccc(OCc5cccc(F)c5)c(Cl)c4)c3c2)o1)c1ccccc1 6.05

* * *

# measured.on: Epidermal growth factor receptor (Homo sapiens)
# condition.label: at 1 µM
quantity.name: inhibition (%)
Give your result in % as a bare value.

Field: example entries. Status: answers known.
| smiles | inhibition (%) |
| --- | --- |
| CNC(=O)c1cncc(/C=C/c2ccccc2Cl)c1 | 6.18 |
| CN1CCC(n2cnc(-c3ccc(F)cc3)c2-c2ccnc(Nc3ccccc3)n2)CC1 | 46.6 |
| CC(C)COC(=O)c1ccc2c(c1)/C(=C/Nc1ccc(S(N)(=O)=O)cc1)C(=O)N2 | 4.58 |
| Nc1nc(-c2ccc(F)cc2)c(-c2ccc3ncccc3n2)s1 | 21.7 |
| Cc1ccc(O)cc1Nc1ccnc2cc(-c3ccccn3)ccc12 | 91.9 |
| Nc1ncc(-c2cccc(S(N)(=O)=O)c2)c2scc(-c3ccc(F)c(Cl)c3)c12 | 14.2 |

Given the compound COc1cc(/C=N/Nc2ncnc3[nH]ncc23)ccc1O , write its reported inhibition. 8.71

Return inhibition (reported value) for this compound: N#Cc1c(NC(=O)CN2CCOCC2)sc2c1CCCC2 -0.79

Give a short answer stating reported inhibition for COc1cc2ncn(-c3cc(OCc4ccccc4C(F)(F)F)c(C(=O)N(C)C)s3)c2cc1OC . 0.03

Read the entry CCCN(CCS(C)(=O)=O)Cc1ccc(-c2ccc3ncnc(Nc4ccc(OCc5cccc(F)c5)c(Cl)c4)c3c2)o1 and write its reported inhibition. 78.4

Using known records, supply inhibition for CS(=O)(=O)CCNCc1coc(-c2ccc3ncnc(Nc4ccc(OCc5ccccc5)cc4)c3c2)c1 92.2

State its inhibition for this compound: CN1CCC(n2cnc(-c3ccc(F)cc3)c2-c2ccnc(N)n2)CC1 12.2

Give the value of inhibition reported for the following: COc1ccc(-c2nn3ncccc3c2-c2ccnc(Nc3ccc4c(c3)OCCO4)n2)cc1 34.1

* * *

# measured.on: Homeodomain-interacting protein kinase 4 (Homo sapiens) (UniProt Q8NE63)
# Sequence (Q8NE63 whole entry): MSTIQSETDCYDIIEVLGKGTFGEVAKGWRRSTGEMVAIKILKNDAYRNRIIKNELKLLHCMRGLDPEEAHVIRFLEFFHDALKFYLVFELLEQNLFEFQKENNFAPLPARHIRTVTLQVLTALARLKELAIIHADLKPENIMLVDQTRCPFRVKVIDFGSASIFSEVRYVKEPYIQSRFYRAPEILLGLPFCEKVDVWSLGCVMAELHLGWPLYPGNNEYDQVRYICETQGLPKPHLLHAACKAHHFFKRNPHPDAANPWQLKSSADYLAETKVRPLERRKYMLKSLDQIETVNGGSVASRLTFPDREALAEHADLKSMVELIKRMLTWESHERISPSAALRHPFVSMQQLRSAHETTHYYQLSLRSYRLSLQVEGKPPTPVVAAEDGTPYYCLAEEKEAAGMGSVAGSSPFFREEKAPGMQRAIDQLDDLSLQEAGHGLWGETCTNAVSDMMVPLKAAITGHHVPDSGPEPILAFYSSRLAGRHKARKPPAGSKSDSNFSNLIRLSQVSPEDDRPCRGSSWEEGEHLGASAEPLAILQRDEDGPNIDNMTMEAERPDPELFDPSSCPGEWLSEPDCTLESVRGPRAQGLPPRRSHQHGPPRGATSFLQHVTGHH
# condition.label: at 1 µM
Listing: inhibition of selected compounds
Hi! Could you send only the number? It should be in %, unit omitted.

| compound | inhibition [%] |
| --- | --- |
| CCOc1ccc2c(-c3ccnc(Nc4cccc(C(F)(F)F)c4)n3)cnn2n1 | 46.2 |
| CCNC(=O)O[C@H]1CN[C@H](C#Cc2cc3ncnc(Nc4ccc(OCc5cccc(F)c5)c(Cl)c4)c3s2)C1 | 0.62 |
| Cc1cccc2c1NC(=O)/C2=N\Nc1ccc(S(N)(=O)=O)cc1 | 1.3 |

Tell me its inhibition given COc1cc(N2CCN(C(C)C)CC2)ccc1Nc1nc(Nc2ccc(F)cc2C(N)=O)c2cc[nH]c2n1 as the entry. 75.1

Identify measured inhibition corresponding to COC(=O)Nc1nc2ccc(S(=O)(=O)c3ccc(NC(=O)Nc4cc(C(F)(F)F)ccc4F)cc3)cc2[nH]1 1.06

Give the value of inhibition reported for the following: Nc1ncc(-c2cccc(S(N)(=O)=O)c2)c2scc(-c3ccc(F)c(Cl)c3)c12 4.49

Provide only the value of recorded inhibition for COc1ccc(-c2cc(-c3c[nH]nc3-c3ccccn3)ccn2)cc1 -2.34

Item COc1cccc(-c2c[nH]c3c(N/N=C/c4ccncc4)ncnc23)c1 : provide inhibition 43.2

Provide inhibition value for the following compound: CC1=C(C(=O)Nc2cc(Cl)c3[nH]ncc3c2)C(c2ccc(C(F)(F)F)cc2)CC(=O)N1 (stereo not given) 2.16

Return inhibition for the following compound: Fc1ccc(-c2nn3ccccc3c2-c2ccncc2)cc1 0.37

* * *

Parameter inhibition: see the listing below.
# measured.on: Phosphorylase b kinase gamma catalytic chain, skeletal muscle/heart isoform (Homo sapiens) (UniProt Q16816)
# Sequence (Q16816 whole entry, looked up, canonical isoform): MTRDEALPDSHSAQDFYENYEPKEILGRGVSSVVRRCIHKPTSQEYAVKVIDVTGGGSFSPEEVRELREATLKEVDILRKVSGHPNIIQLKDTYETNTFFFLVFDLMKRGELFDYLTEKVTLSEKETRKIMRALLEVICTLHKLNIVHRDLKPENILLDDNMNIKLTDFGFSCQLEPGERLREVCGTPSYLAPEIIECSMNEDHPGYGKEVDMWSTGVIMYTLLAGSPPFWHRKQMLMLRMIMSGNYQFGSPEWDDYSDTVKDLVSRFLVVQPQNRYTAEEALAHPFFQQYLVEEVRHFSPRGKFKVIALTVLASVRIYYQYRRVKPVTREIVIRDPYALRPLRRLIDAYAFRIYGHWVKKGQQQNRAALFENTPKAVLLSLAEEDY
# condition.label: at 0.1 µM
Use % as the unit, but write only the number.

| molecule | inhibition / % |
| --- | --- |
| COC(=O)Nc1nc2ccc(Oc3ccc(NC(=O)Nc4cccc(Cl)c4)cc3)cc2[nH]1 | 1.88 |
| CCN(CC)S(=O)(=O)c1ccc(OC)c(Nc2ncc(-c3ccccc3)o2)c1 | -0.59 |
| COc1cccc(-c2c[nH]c3c(N/N=C/c4ccncc4)ncnc23)c1 | 3.01 |
| COC(=O)c1sc(-n2cnc3cc(OC)c(OC)cc32)cc1OCc1ccccc1C(F)(F)F | 4.45 |
| Fc1ccc(-c2cc(-c3c[nH]nc3-c3ccccn3)ccn2)cc1 | 5.71 |
| NS(=O)(=O)c1ccc(Nc2ncc(-c3ccccc3)o2)cc1 | 3.92 |
| O=S(=O)(CCNCc1ccc(-c2ccc3ncnc(Nc4ccc(OCc5cccc(F)c5)c(Cl)c4)c3c2)o1)c1ccccc1 | 5.41 |
| CCCN1CCC(c2ccc(Nc3nc(Nc4cc(F)ccc4C(N)=O)c4cc[nH]c4n3)c(OC)c2)CC1 | 51.3 |
| COc1cc2c(cc1Nc1nc(Nc3ccsc3C(N)=O)c3cc[nH]c3n1)N(C(=O)CN(C)C)CCC2(C)C | 18.5 |

From here, focus on the item given below.
Let me know recorded inhibition for CC1=C(C(=O)Nc2cc(Cl)c3[nH]ncc3c2)C(c2ccc(C(F)(F)F)cc2)CC(=O)N1 (stereo not given) , thanks. 3.83

* * *

# measured.on: Mitogen-activated protein kinase 1 (Homo sapiens)
# condition.label: at 0.1 µM
Listing: inhibition of selected molecules
Could you give me the number in %? Just the number is fine.

| smiles | inhibition (%) |
| --- | --- |
| O=S(=O)(CCNCc1ccc(-c2ccc3ncnc(Nc4ccc(OCc5cccc(F)c5)c(Cl)c4)c3c2)o1)c1ccccc1 | 7.56 |

Pending molecule:
// output inhibition; input Fc1ccc(-c2cc(-c3c[nH]nc3-c3ccccn3)ccn2)cc1 ; system Mitogen-activated protein kinase 1 (Homo sapiens) 6.73

* * *

# measured.on: Inhibitor of nuclear factor kappa-B kinase subunit beta (Homo sapiens) (UniProt O14920)
# Sequence (whole entry): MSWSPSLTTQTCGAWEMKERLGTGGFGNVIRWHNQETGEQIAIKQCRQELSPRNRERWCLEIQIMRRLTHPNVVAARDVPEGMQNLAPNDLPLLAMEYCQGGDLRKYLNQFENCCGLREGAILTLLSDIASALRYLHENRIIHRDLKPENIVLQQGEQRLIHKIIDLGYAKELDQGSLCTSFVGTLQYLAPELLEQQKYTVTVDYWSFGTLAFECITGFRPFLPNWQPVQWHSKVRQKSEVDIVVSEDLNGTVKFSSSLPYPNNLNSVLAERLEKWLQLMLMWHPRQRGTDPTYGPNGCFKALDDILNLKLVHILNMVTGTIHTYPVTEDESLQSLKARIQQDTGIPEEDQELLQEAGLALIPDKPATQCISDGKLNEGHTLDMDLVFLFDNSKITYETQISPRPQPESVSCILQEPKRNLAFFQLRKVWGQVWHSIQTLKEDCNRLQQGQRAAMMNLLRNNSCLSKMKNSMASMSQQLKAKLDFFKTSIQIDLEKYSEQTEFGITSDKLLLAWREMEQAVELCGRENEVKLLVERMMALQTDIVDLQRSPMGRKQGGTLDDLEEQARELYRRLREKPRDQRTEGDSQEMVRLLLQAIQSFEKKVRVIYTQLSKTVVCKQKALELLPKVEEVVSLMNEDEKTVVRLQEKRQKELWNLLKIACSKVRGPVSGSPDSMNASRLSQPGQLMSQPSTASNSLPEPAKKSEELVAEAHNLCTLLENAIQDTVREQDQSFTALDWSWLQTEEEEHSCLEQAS
# condition.label: at 1 µM
Recorded inhibition values for a group of compounds are listed next.
The reply should be a number in %, with the unit left off.

Example entries and their recorded answers appear below.
| compound | quantity.name | uom | recorded.number |
| --- | --- | --- | --- |
| COc1cccc(-c2c[nH]c3c(N/N=C/c4ccncc4)ncnc23)c1 | inhibition | % | 1.73 |
| O=C(O[C@H]1CN[C@H](C#Cc2cc3ncnc(Nc4ccc(Cc5ccccc5)cc4)c3s2)C1)N1CCOCC1 | inhibition | % | 0.81 |
| CS(=O)(=O)CCNCc1ccc(-c2ccc3ncnc(Nc4ccc(OCc5ccccc5)c(C(F)(F)F)c4)c3c2)o1 | inhibition | % | 10.4 |
| CCOc1ccc2c(-c3ccnc(Nc4cccc(C(F)(F)F)c4)n3)cnn2n1 | inhibition | % | 3.66 |
| CN1CCC(n2cnc(-c3ccc(F)cc3)c2-c2ccnc(N)n2)CC1 | inhibition | % | 4.02 |

Consider the compound COc1ccc2c(-c3ccnc(Nc4cccc(OC(F)(F)F)c4)n3)cnn2n1 and give its recorded inhibition. 6.88

Note down inhibition recorded for Cc1cccc2c1NC(=O)/C2=N\Nc1ccc(S(N)(=O)=O)cc1 3.79

Specify inhibition for Clc1ccc(-c2nn3ncccc3c2-c2ccnc(Nc3ccccc3)n2)cc1 and stop. -3.62

Note down inhibition recorded for CCn1c(-c2nonc2N)nc2cnc(Oc3cccc(NC(=O)c4ccc(N(C)C)cc4)c3)cc21 1.85

Answer with reported inhibition of Cc1ccc(O)cc1Nc1ccnc2cc(-c3ccccn3)ccc12 1.3

Query inhibition for Cc1ccc2c(-c3ccnc(Nc4ccccc4)n3)c(-c3ccc(F)cc3)nn2n1 1.74

Give the value of inhibition reported for the following: COC(=O)c1sc(-n2cnc3cc(OC)c(OC)cc32)cc1OCc1ccccc1C(F)(F)F 4.11

Quickly give me recorded inhibition for COc1cc(N2CCN(C(C)C)CC2)ccc1Nc1nc(Nc2ccc(F)cc2C(N)=O)c2cc[nH]c2n1 3.32

All figures here come from ChEMBL document CHEMBL1961873.
